System: MDA-MB-231 breast
Experiment: NCI tumour cell line growth inhibition, 48 h
parameter: TGI (µM)
Numbers only, in µM.

Please review the entries below; each comes with its answer.
O=C1C=CC(O)C2C1CC13SSC4(CC5C(=O)C=CC(O)C5N4C1=O)C(=O)N23 (centres undefined)
0.947
CC(=O)O[C@@H](C1C[C@@H](C)[C@H]2[C@@](O)(O1)[C@H](O)[C@@]1(C)C3=CC[C@H]4C(C)(C)[C@@H](OC5OCC(O)C(O)C5O)CC[C@@]45C[C@@]35CC[C@]21C)C(C)(C)O (some centres undefined)
37.2
c1ccc(CNc2nc(Nc3ccccc3)nc3ccccc23)cc1
3.12

Hello, I would appreciate it if you could give TGI for each entry below.
1. CC[C@@H]1/C=C/C=C/C[C@H](C)[C@@H](O)[C@](C)(O)C(=O)[C@H](C)[C@@H](O)[C@H](C)C(=O)[C@H](C)[C@@H](O)[C@H](C)/C=C/C(=O)O[C@H]2[C@@H](C)[C@@H](CC1)O[C@@]1(CC[C@@H](C)[C@@H](CC(C)O)O1)[C@@H]2C (some centres undefined)
2. COc1cc(C(=O)Oc2c(C#N)sc3c2c(=O)n(-c2ccccc2)c(=S)n3-c2ccccc2)cc(OC)c1OC
3. C/C(=N\Nc1nc2ccccc2s1)c1cc(C)ncn1

**Result**
[6.65, 77.9, 9.47]

Batch request: TGI per item, same order as input.
1. Cc1c(C)c(S(=O)(=O)N(CCCCCON)OCCCN)c(C)c2c1OC(C)(C)CC2
2. Oc1ccc(Cl)cc1CNc1nc2ccccc2[nH]1

**Result**
1: 30.4; 2: 22.4

---

System: RXF 393 renal
Assay: NCI tumour cell line growth inhibition, 48 h
parameter: TGI

Example cases with answers are listed next.
Cc1ccc(NC(=O)C(=O)Cc2cc[n+]([O-])cc2)cc1
> 100 µM
O=C(Nc1ccn(CCI)c(=O)n1)c1ccccc1
> 100 µM

Now look at this entry.
**Query** Can you look up the measured TGI of ClCc1ccc(Cn2cnc3c(Cl)nc(Cl)nc32)cc1 for me?
**Result** 41.5 µM

---

Test system: TK-10 renal
Test: NCI tumour cell line growth inhibition, 48 h
parameter: TGI

// worked examples, TGI included
O=C(NNC(=O)c1ccccc1O)c1ccc(O)cc1
> 100 µM
CC1=NN=C(N)NC1=CC(Sc1ccc(Cl)cc1)c1c(O)ccc2ccccc12 (stereo not drawn)
> 100 µM

Go through the list and state TGI for each entry.
1. Cc1cccc2nc3cccc(C(=O)NCCN(C)C)c3nc12
2. N#Cc1sc2c(c1O)c(=O)n(-c1ccccc1)c(=S)n2-c1ccccc1

**Result**
1. 5.84 µM
2. > 100 µM

---

Test system: M14 melanoma
Experiment: NCI tumour cell line growth inhibition, 48 h
parameter: TGI

I have 3 molecules here; please give me TGI for each one.
1. CC12Oc3ccc4ccccc4c3CC1Cc1c(ccc3ccccc13)O2 (stereo not given)
2. O=C1CC(c2ccc(Cl)cc2)Oc2ccccc21 (stereo not given)
3. Cc1nc2c(=O)n3c4c(cccc4c2o1)CCC3

**Result**
1. > 100 µM
2. 58.4 µM
3. > 100 µM

---

Please respond with reported GI50 for every item in the list.
System: A549 NSCLC

CN(C)CCN1C(=O)c2cccc3cccc(c23)C1=O
12.9 µM
COc1ccc(OC)c(Nc2nc(-c3c(C)nc4sccn34)cs2)c1
> 100 µM
Cc1c(Sc2ccccc2)[n+](=O)c2cc(Cl)c(Cl)cc2n1[O-]
> 100 µM
Cc1nc(Nc2nc3ccccc3o2)nc(-c2cccc([N+](=O)[O-])c2)c1C(=O)Nc1ccc(F)c(Cl)c1
1.92 µM

**Query** Requested field: GI50. Item: CO[C@H]1CC(c2ccc[nH]2)=N[C@]12O[C@@H](C)C[C@@H]1CCCCCCCc3ccc([nH]3)[C@H]12
**Result** 1.04 µM

---

These compounds were tested on U251 CNS; GI50 is the recorded read-out.

Solved cases below.
c1ccc(CNc2nc(Nc3ccccc3)nc3ccccc23)cc1
1.52 µM
CC(C)COC(=O)c1ccc2[nH]c(O)c(C=Nc3ccc(S(N)(=O)=O)cc3)c2c1
0.879 µM

Please supply GI50 for each of the following items, keeping them in order.
1. O=C(Nc1ccc(I)cc1F)c1cc(Cl)ccc1O
2. N#Cc1cc(S(=O)(=O)Nc2nc3ccccc3s2)c(SCc2ccccc2)cc1Cl
3. CCCNc1nc2ccccc2c2c1S(=O)(=O)c1ccc(Cl)cc1C2=O
4. Cc1cc(OCc2nnc3n2N=C(c2ccc(Cl)cc2Cl)CS3)ccc1Cl
5. CCN(CC)CCOc1ccc(C(=O)/C=C\c2ccc(Cl)cc2Cl)cc1
6. Clc1nc(Cl)c2ncn(Cc3ccc(Cn4cnc5c(Cl)nc(Cl)nc54)cc3)c2n1

**Result**
["0.59 µM", "19.2 µM", "1.6 µM", "71.3 µM", "7.16 µM", "13.2 µM"]

Please report GI50 for every entry that follows.
1. COc1ccc(C2=CC(c3ccc(OC)c(OC)c3)c3c(c4ccccc4oc3=O)O2)cc1OC (centres undefined)
2. Cc1c(Sc2ccccc2)[n+](=O)c2cc(Cl)c(Cl)cc2n1[O-]
3. COc1cc(Cl)cc(-c2nn(-c3cccc(NC(=O)Nc4ccc(Cl)c(C(F)(F)F)c4)c3)cc2-c2ccncc2)c1
4. C=C1c2c(Cl)ccc(O)c2C(O)=C2C(=O)[C@]3(O)C(O)=C(C(N)=O)C(=O)[C@@H](N(C)C)[C@@H]3[C@@H](O)[C@H]12
5. COc1ccc(-c2nn(-c3cccc(NC(=O)c4ccc(N5CCOCC5)c(C(F)(F)F)c4)c3)cc2-c2ccncc2)cc1Cl

**Result**
1. 3.19 µM
2. > 100 µM
3. 0.729 µM
4. 0.949 µM
5. 1.14 µM

Hello, I would appreciate it if you could give GI50 for each entry below.
1. COc1ccc2nc(NC(=O)c3cccnc3Nc3cc(OC)c(OC)c(OC)c3)sc2c1
2. C/C=C(\C)C(=O)N[C@H]1C(O)C[C@]2(C)C3CC[C@@]4(C)C(CC[C@@H]4C(C)N(C)C)C3CCC2C1O (some centres undefined)
3. COc1ccc(Nc2cc(C)nc(N3CCN(c4ccnc5cc(Cl)ccc45)CC3)n2)cc1
4. C=CCCCc1ccc(C(O)CCCCCCCCCCCC)o1 (centres undefined)
5. COc1ccc(OC)c(Nc2nc(-c3c(C)nc4sccn34)cs2)c1
6. Cn1cnc([N+](=O)[O-])c1Sc1ncn[nH]1

**Result**
7.1 µM
4.35 µM
3.06 µM
15.5 µM
> 100 µM
> 100 µM

---

Test system: RXF 393 renal
Assay: NCI tumour cell line growth inhibition, 48 h
Parameter threshold = 30 µM. Response is Satisfied when TGI meets or exceeds it, else Not satisfied.

See these solved cases before continuing.
O=C1NC2(CCN(CCCC3(c4ccc(F)cc4)OCCO3)CC2)Oc2ccccc21
Satisfied
CO[C@H]1CC(c2ccc[nH]2)=N[C@]12O[C@@H](C)C[C@@H]1CCCCCCCc3ccc([nH]3)[C@H]12
Not satisfied
COc1ccc(CCNC(=O)[C@H]2CCCC[C@@H]2CCO)cc1OC
Satisfied
CC1=C(C(=O)OC(C)C)C(c2ccccc2C(F)(F)F)C(C(=O)OC(CO[N+](=O)[O-])CO[N+](=O)[O-])=C(C)N1 (stereo not given)
Not satisfied
CC1=C(C(=O)Nc2ccc([N+](=O)[O-])cc2)C(c2ccccc2F)C(C(=O)Nc2ccc([N+](=O)[O-])cc2)=C(C)N1
Satisfied
CNC(=O)OCC1C2=C(C(=O)C(C)=C(N)C2=O)N2CC3C(N3C)C12OC (stereo not given)
Satisfied
COc1cc(/C=C/C(=O)c2cccnc2Nc2ccc(F)cc2)cc(OC)c1OC
Not satisfied
CC(=O)OCC(Br)C1(C)CCC(C(C)(C)Br)O1 (stereo not given)
Satisfied

**Query** Is reported TGI greater than or equal to 30 µM here: C=C1c2c(Cl)ccc(O)c2C(O)=C2C(=O)[C@]3(O)C(O)=C(C(N)=O)C(=O)[C@@H](N(C)C)[C@@H]3[C@@H](O)[C@H]12
**Result** Not satisfied

**Query** Check N#Cc1sc2c(c1O)c(=O)n(-c1ccccc1)c(=S)n2-c1ccccc1 too.
**Result** Satisfied

**Query** Cc1ccc(S(=O)(=O)NCCCSCCSCCCN)cc1 ?
**Result** Satisfied

**Query** Another molecule: O=C(O)/C=C/C(=O)N1C/C(=C\c2ccccc2)C(=O)/C(=C/c2ccccc2)C1
**Result** Not satisfied

**Query** Try this molecule too: O=C1c2nc3n(c2C(=O)c2c1nc1n2CCC1)CCC3
**Result** Not satisfied

**Query** Would you mind doing C=CCCCc1ccc(C(O)CCCCCCCCCCCC)o1 (stereo not given) as well?
**Result** Satisfied

**Query** Now the molecule CC(C)C(NC(=O)C(Cc1ccccc1)NC(=O)[C@H]1CCC[C@H]1NC(=O)C(N)Cc1ccc(O)cc1)C(N)=O (stereo not given in full)
**Result** Satisfied

**Query** Do the same for Cc1cc(OCc2nnc3n2N=C(c2ccc(Cl)cc2Cl)CS3)ccc1Cl please
**Result** Satisfied

**Query** Moving on to the next molecule: Cc1c(Sc2ccccc2)[n+](=O)c2cc(Cl)c(Cl)cc2n1[O-]
**Result** Satisfied

**Query** Queued: CC(CCCOC(c1ccccc1)(c1ccccc1)c1ccccc1)OC(=O)Nc1ccccc1 (stereo not given)
**Result** Not satisfied

**Query** Field entry: C[N+](C)=c1nc(N2CCc3ccccc3C2)ss1
**Result** Satisfied
